Give % Abundance for every item shown.
# assayed_target: T1, biotinylated OprF1 synthetic peptide (P. aeruginosa)
# T1 construct: also called OprF1-B; OprF1-Biotin
# T1 peptide: Biotin-GTYETGNKKVH
# assay_info: pooled monoclonal phages pulled down on biotinylated OprF1 in Bushnell-Haas with 1% Jet-A; unamplified eluate, share of 30 sequenced clones
Ends that are not written are not given here. * marks the point of attachment. Biotin = O=C1N[C@H]2[C@H](CS[C@H]2CCCCC(=O)*)N1
Answers are plain numbers, in %.

A selection of reference data follows.
binder	measured_quantity	assay_result
QMLLRLP (also called OprF-specific bacteriophage; not shown: P3 coat protein of M13 bacteriophage (Ph.D.-7 library)) [monoclonal M13 phage displaying OBP9 (QMLLRLP)]	% Abundance	3
NMTNPPP (also called OprF-specific bacteriophage; not shown: P3 coat protein of M13 bacteriophage (Ph.D.-7 library)) [monoclonal M13 phage displaying OBP6 (NMTNPPP)]	% Abundance	10
PKRTPRH (also called OprF-specific bacteriophage; not shown: P3 coat protein of M13 bacteriophage (Ph.D.-7 library)) [monoclonal M13 phage displaying OBP12 (PKRTPRH)]	% Abundance	3

Please report % Abundance for every entry that follows.
1. PIKTNRK (also called OprF-specific bacteriophage; not shown: P3 coat protein of M13 bacteriophage (Ph.D.-7 library)) [monoclonal M13 phage displaying OBP11 (PIKTNRK)]
2. QITLRST (also called OprF-specific bacteriophage; not shown: P3 coat protein of M13 bacteriophage (Ph.D.-7 library)) [monoclonal M13 phage displaying OBP7 (QITLRST)]
3. RRSNSQL (also called OprF-specific bacteriophage; not shown: P3 coat protein of M13 bacteriophage (Ph.D.-7 library)) [monoclonal M13 phage displaying OBP4 (RRSNSQL)]

// result
1: 10; 2: 10; 3: 33
